Test system: K562
measurement_protocol: Microcytoxicity assay (SRB), K562
Assay type: cell-based, human
condition_parameters: Chronic myelogenous leukemia
metric: IC50 (nM)
Please state the figure in nM; there is no need to write the unit.

Query for K562: what IC50 does the record show for COc1c2c(c3oc4ccccc4c(=O)c3c1OC)CC([C@@]1(C)CO1)O2 (mixture of isomers) ?
36

====

Tested on: K562/R (daunorubicin resistant)
measurement_protocol: Microcytoxicity assay (SRB), K562/R
Assay type: cell-based, human
condition_parameters: Chronic myelogenous leukemia
metric: IC50 (nM)
Please state the figure in nM; there is no need to write the unit.

Need IC50 of COc1c2c(c3oc4ccccc4c(=O)c3c1OC)CC([C@@]1(C)CO1)O2 (mixture of isomers) , thanks.
24
